These measurements were taken from PubChem BioAssay AID1345085.

# Test system: SW626
# experiment.summary: Confirmatory qHTS for gynecologic anti-cancer compounds from libraries of approved drugs and bioactive compounds; also: nearly all actives have a fitted effect of over 55% in size
# setup.conditions: gynecologic cancer cell panel viability, ATPlite luminescence, 48 h; series mostly up to 57.6 µM
Inconclusive results are not listed. Calls of active or inactive are those of the source. Calls follow the shape of the dose curve; as a rule, active = well fitted cell-killing curve with a large enough effect; inconclusive = small, poorly fitted or top-dose-only effect, or effect the other way; inactive = no such curve, though single readings can be large or run the other way.
# output must be one of active, inactive

Examples with answers:
N=C(N)c1ccc(OCCCCCOc2ccc(C(=N)N)cc2)cc1
inactive
Nc1ncn([C@@H]2O[C@H](CO)[C@@H](O)[C@H]2O)c(=O)n1
inactive
CCN(CC)CCNC(=O)c1c(C)[nH]c(/C=C2\C(=O)Nc3ccc(F)cc32)c1C
active
CC[C@H](CC#N)OC(=O)N[C@@H](C)c1cccc(NC(=O)Nc2ccc(-c3cnco3)c(OC)c2)c1
inactive
CN(C)c1ccc2nc3ccc(=[N+](C)C)cc-3sc2c1
active
Cc1[nH]c2ccccc2c1CCNCc1ccc(/C=C/C(=O)NO)cc1
active

Kindly review the next molecule as well.
Query block: For C=CC(=O)Nc1cccc(Oc2nc(Nc3ccc(N4CCN(C)CC4)cc3)ncc2Cl)c1 , what call appears in the results of this test?
Result block: active
